Assay: Equilibrium solubility in pH buffers and biorelevant media
Type: physicochemical
Settings: phosphate buffer, 37 °C, pH 6, aqueous buffer, thermodynamic from solid; PH6.0; read-out: Solubility (mean ± SD) at fasted state
property.label: solubility at 2 h (µg/mL)
Provide only the numeric value, understood in µg/mL.

Query: Data request, read-out solubility at 2 h, for Cc1ccc(Nc2nccc(N(C)c3ccc4c(C)n(C)nc4c3)n2)cc1S(N)(=O)=O
Result: 7.6

* * *

Experiment: Effect of NaTC (bile salt) concentration on solubility
Assay type: physicochemical
Conditions: biorelevant medium with sodium taurocholate (NaTC), 37 °C, pH 5.5, fassgf or other biorelevant, thermodynamic from solid, NaTC 15 mM, pH 5.5; read-out: Solubility at Fasted state
property.label: solubility at 2 h (µg/mL)
Provide only the numeric value, understood in µg/mL.

Query: Data request, read-out solubility at 2 h, for Cc1ccc(Nc2nccc(N(C)c3ccc4c(C)n(C)nc4c3)n2)cc1S(N)(=O)=O [PAZ, pazopanib]
Result: 6.93
